- System: SW-620 colon
- measurement_notes: NCI tumour cell line growth inhibition, 48 h
Listing of recorded TGI by entry.
parameter: TGI (µM)

molecule | censoring_qualifier | assay_value
CC1=C/C(=C(/c2ccc(O)c(C)c2)c2ccccc2C(=O)O)C=CC1=O | = | 39
CCCCC/C(=N\c1nc[nH]c1C(N)=O)OCC | > | 100
COc1ccc(N=C2C(=Nc3ccc(OC)cc3)N(c3ccccc3[N+](=O)[O-])C(=S)N2c2ccc(OC)cc2)cc1 | > | 100
CCCCN1C(=O)C[C@H]2[C@@H]3CCc4cc(OCCN5CCCC5)ccc4[C@H]3CC[C@]2(C)C1=O | = | 25.1
Cc1ccc(C2CC(c3cccc(Nc4ccncc4)c3)=NN2c2ccc(Cl)cc2)cc1 (stereo not given) | = | 3.04

###

- Test system: KM20L2 colon
- measurement_notes: NCI tumour cell line growth inhibition, 48 h
Listing of recorded TGI by entry.
parameter: TGI

compound | parameter | assay_value
COC(=O)[C@]1(C)CCC[C@]2(C)C3CC4OOC3(C=C4C(C)C)CCC21 (stereo partly specified) | TGI | 32 µM
N.N.N.N.O=S(=O)([O-])[O-].[Co+3].[OH3+].[OH3+] | TGI | > 100 µM
O=c1nc2[nH]nc(-c3ccccc3)c2n[nH]1 | TGI | > 100 µM
Cc1cc2c(=O)cc(-c3ccc(C(=O)O)cc3)oc2c(C(=O)O)c1C | TGI | > 100 µM
CC1=NN(c2ccccc2)C(=O)C1C(=O)C(=O)Nc1ccc(C)cc1C (stereo unspecified) | TGI | > 100 µM
COC(=O)C1CCc2nnc(-c3cccnc3)n21 (stereo unspecified) | TGI | > 100 µM
FC(F)(F)c1ccccc1C=NC12CC3CC(CC(C3)C1)C2 | TGI | > 100 µM
Cc1ccccc1C(C#N)/C(=N/NC(=O)C(=O)NN)C(=O)Nc1cccc(C(F)(F)F)c1 (stereo unspecified) | TGI | > 100 µM
O=C1CSc2ccncc2N1 | TGI | > 100 µM
COc1cc([C@@H]2c3cc4c(cc3[C@@H](NC(=O)c3ccc([N+](=O)[O-])cc3)C3COC(=O)[C@@H]32)OCO4)cc(OC)c1O (stereo partly specified) | TGI | 3.73 µM
COC1=CC(=O)C2[C@H]3Cc4ccccc4[C@H]3C2(C)C1=O (stereo partly specified) | TGI | > 100 µM

###

- Test system: U251 CNS
- measurement_notes: NCI tumour cell line growth inhibition, 48 h

molecule | TGI
COc1cc([C@@H]2c3cc4c(cc3[C@H](O)[C@H]3COC(=O)[C@@H]23)OCO4)cc(OC)c1OC | > 100 µM
COc1ccc2cc(C(=O)/C=C/c3ccccc3OC)ccc2c1 | 15.6 µM
COC1(C)Cc2c(c(C)c(O)c3c2C(=O)C=C(Cl)C3=O)O1 (stereo not given) | > 100 µM
Cc1c(C)c(C)c(CSC(=N)N)c(C)c1C | 26.4 µM
COC(=O)C1CCc2nnc(-c3cccnc3)n21 (stereo not given) | > 100 µM
CC(C)=CCC/C(C)=C/CC/C(C)=C/CC/C(C=O)=C/CC/C(C)=C\CC/C(C)=C/CC/C(C)=C/CC/C(C)=C/CC1=CC(=O)C=CC1=O | > 100 µM
N=C(N)c1ccc(-c2ccc(-c3ccc(C(=N)N)cc3)o2)cc1 | 34.7 µM
CC(C)(C)C1CCN(C(=O)c2ccccc2)CC1 | > 100 µM
COc1ccc2c(c1)N(CCC1CCCCN1C)c1ccccc1S2 (stereo not given) | 23.8 µM
OCCCNC(=S)Nc1ccc(-c2nc3ccccc3s2)cc1 | > 100 µM
COc1ccc(C2S/C(=C\c3cccc([N+](=O)[O-])c3)C(=O)N2NC(=O)Cc2ccccc2)cc1 (stereo not given) | > 100 µM
CCOC(=O)C1=C(N)Oc2cc(OC)ccc2C1c1ccc(F)c(F)c1 (stereo not given) | 14.3 µM
CCCCC/C(=N\c1nc[nH]c1C(N)=O)OCC | > 100 µM
N#CC(C#N)=Cc1ccc(-c2ccc(-c3nc4ccccc4s3)cc2)s1 | 31.9 µM
Cc1cc2c(=O)cc(-c3ccc(C(=O)O)cc3)oc2c(C(=O)O)c1C | > 100 µM
Cc1cc(NC(=O)C(=O)Cc2nc3ccccc3s2)ccc1Cl | > 100 µM
O=C(Nc1ccc(Cl)cc1Cl)/C(Cl)=C1/Sc2ccccc2NC1=O | > 100 µM
Cc1cccc(C(O)c2ccccn2)c1O (stereo not given) | > 100 µM
CN(CCNC(=O)c1cc(-c2ccccc2)nc2ccccc12)CCNC(=O)c1cc(-c2ccccc2)nc2ccccc12 | 30.9 µM
CC1=NN(c2ccccc2)C(=O)C1C(=O)C(=O)Nc1ccc(C)cc1C (stereo not given) | > 100 µM
CC(C)C(/C=C/c1ccc(Cl)cc1)=N\NC(=S)NN | > 100 µM
O=C(Nc1ccc(F)cc1)c1cc2ccc(O)cc2oc1=Nc1cccc(F)c1 | > 100 µM
C[C@H]1[C@H](C)CC[C@]2(C(=O)O)CC[C@]3(C)C(=CC[C@@H]4[C@@]5(C)CC[C@H](OC(=O)/C=C\c6ccc(O)cc6)C(C)(C)[C@@H]5CC[C@]43C)[C@H]12 | 9.41 µM
C#Cc1ccc(-n2c(/C=C/c3ccc4ccccc4n3)nc3ncccc3c2=O)cc1 | 1.59 µM
O=C1C=CC(=O)N1CCCCCCCCCCN1C(=O)C=CC1=O | 37.8 µM
Cn1c(-c2ccccc2)c/c(=N\NS(C)(=O)=O)c2cc(S(=O)(=O)O)ccc21 | > 100 µM
N#Cc1ccccc1/C=N/O | > 100 µM
CCN1CCN(Cc2ccc3cc(C(=O)Nc4cc(NC(=O)c5ccc6c(c5)OCCO6)ccc4F)ccc3n2)CC1 | 11.4 µM
Clc1ccc(CSCc2ccc(Cl)cc2Cl)c(Cl)c1 | > 100 µM
Clc1ccc(CCn2cncn2)c(Cl)c1 | > 100 µM
CCC(/C=C/c1ccccc1)=N\N=C(\C=C\c1ccccc1)CC | > 100 µM
CC1=C(C(=O)Nc2ccc(Cl)c(Cl)c2)C(c2cccc(O)c2)NC(=S)N1 (stereo not given) | 18.1 µM
O=C(CN1CCCC1)Nc1ccc2sc3ccccc3c(=O)c2n1 | 46.3 µM
COc1cc2c(/C=C3/C(=O)Nc4c3ccc3ccccc43)c(Cl)[nH]c2cc1C | 9.94 µM
COc1cc(C2c3cc4c(cc3OC(O)C2C)OCO4)cc(OC)c1O (stereo not given) | 62.8 µM
C#CCOc1c(OC)cc(C(=O)/C(C)=C/c2cccc(N=[N+]=[N-])c2)cc1OC | > 100 µM
COC(C(=O)[C@@H](O)[C@@H](C)O)[C@@H]1Cc2cc3cc(O[C@H]4C[C@@H](O[C@H]5C[C@@H](O)[C@H](O)C(C)O5)[C@H](O)C(C)O4)c(C)c(O)c3c(O)c2C(=O)[C@H]1O[C@H]1C[C@@H](O[C@H]2C[C@@H](O[C@H]3C[C@@H](O)[C@@H](O)C(C)O3)[C@@H](O)C(C)O2)[C@H](O)C(C)O1 (stereo not given in full) | > 32.5 µM
CN(C)N1C(=O)CC2(CCN(CCCC(=O)c3ccc(F)cc3)CC2)C1=O | > 100 µM
COc1cc2c(cc1OC)C(=O)/C(=C/c1ccccc1)C2 | > 100 µM
CCC1CCN=C(Cn2cc(C)c(=O)[nH]c2=O)N1 (stereo not given) | > 100 µM

###

- System: SK-MEL-5 melanoma
- measurement_notes: NCI tumour cell line growth inhibition, 48 h; in the data active = GI50 below about 0.43 µM; inactive = the rest
Where a SMILES comes first, the peptide text is derived from it. [ ]: non-standard residue; d: D form. Orn = NCCC[CH](N)C(=O)O
Classes used: yes for active, no for inactive

compound | cat
CCN(CC)CCCC(C)Nc1ccnc2cc(Cl)c(SCc3ccccc3)cc12 (stereo not given) | no
CN(C)CCOc1cccc(NC2=C(Cl)C(=O)C(Nc3cccc(OCCN(C)C)c3)=C(Cl)C2=O)c1 | no
COc1cc2c3c(n(CCCN4CCOCC4)c(=O)c2cc1OC)-c1cc2c(cc1C3=O)OCO2 | no
CCN1CCN(Cc2ccc3cc(C(=O)Nc4cc(NC(=O)c5ccc6c(c5)OCCO6)ccc4F)ccc3n2)CC1 | yes
O=C(O)c1cn(C2CC2)c2cc(N3CCN(C(=O)Nc4nc(-c5ccc(Cl)cc5)cs4)CC3)c(F)cc2c1=O | no
O=C(Nc1cccc2ccccc12)c1cc2ccccc2cc1O | no
N#CC(C#N)=Cc1ccc(-c2ccc(-c3nc4ccccc4s3)cc2)s1 | no
O=CNc1ccc2c(c1)Cc1cc([N+](=O)[O-])ccc1-2 | no
COc1ccc2c(c1)c(=O)oc1cc(OC/C(=N\O)c3ccc(F)cc3)ccc12 | no
CCOC(=O)C1=C(N)Oc2cc(OC)ccc2C1c1ccc(F)c(F)c1 (stereo not given) | no
COC(=O)/C(Br)=C/c1c[nH]c2ccc(Br)cc12 | no
O=C(Nc1cc(Cl)cc(Cl)c1)c1ccc(NC2=C(Cl)C(=O)N(Cc3ccccc3)C2=O)cc1 | no
COc1cc2c(/C=C3/C(=O)Nc4c3ccc3ccccc43)c(Cl)[nH]c2cc1C | yes
COc1ccc(OC)c2c3c(ncc12)-c1cc2c(cc1C3)OCO2 | no
CCOC(=O)c1c2c(n3cccc(F)c13)C(=O)c1ncccc1C2=O | yes
CCCNNC(=O)c1ccc(CNC(=O)/C=C/c2ccccc2)cc1 | yes
Cc1cc(Cl)ccc1Nc1nc(C(F)(F)F)ccc1C(=O)N/N=C/c1c(Cl)cccc1Cl | no
CC(C)CC1NC(=O)C(CCCN)NC(=O)C(C(C)C)NC(=O)C2CCCN2C(=O)C(Cc2ccccc2)NC(=O)C(CC(C)C)NC(=O)C(CCCN)NC(=O)C(C(C)C)NC(=O)C2CCCN2C(=O)C(Cc2ccccc2)NC1=O (stereo not given) (cyclo(FPV[Orn]LFPV[Orn]L); configuration not given here) | yes
COc1cc2c(cc1C)NC(=O)/C2=C/c1c(C)nc2sc(C)cn12 | no
O=C1C=CC(=O)N1CCCCCCCCCCN1C(=O)C=CC1=O | no
